// reported pIC50 for each item listed
# Test system: thoracic aorta
# assay_info: Vasorelaxing action in vitro: relaxation of 30 mM K+ contraction of aortic rings
# Assay type: cell-based, Sprague-Dawley (Crj) male rat
# run_conditions: Rattus norvegicus, contraction at 30 mM K+ taken as 100%
Just the number, please; pIC50 means minus log10 of the concentration in mol/L.

Example entries and their recorded answers appear below.
Exam item: Given COc1ccc(CN(C)CCCN2C(=O)CSC2c2cc(C(C)(C)C)c(O)c(C(C)(C)C)c2)cc1OC (stereo not shown) [Compound 19] , respond with its pIC50.
Marked response: 6.96

Exam item: Given CN(CCCN1C(=O)C(OCCO)SC1c1cc(C(C)(C)C)c(O)c(C(C)(C)C)c1)CCOc1ccc2c(c1)OCO2 (stereo not shown) [Compound 55] , respond with its pIC50.
Marked response: 7.68

Exam item: Given CN(CCCN1C(=O)C(CCO)SC1c1cc(C(C)(C)C)c(O)c(C(C)(C)C)c1)CCOc1ccc2c(c1)OCO2 (stereo not shown) [Compound 49] , respond with its pIC50.
Marked response: 7.64

Exam item: Given CN(CCCCN1C(=O)CSC1c1cc(C(C)(C)C)c(O)c(C(C)(C)C)c1)CCOc1ccc2c(c1)OCO2 (stereo not shown) [Compound 8] , respond with its pIC50.
Marked response: 6.77

Exam item: Given COc1c(C(C)(C)C)cc(C2SCC(=O)N2CCCN(C)CCOc2ccc3c(c2)OCO3)cc1C(C)(C)C (stereo not shown) [Compound 11] , respond with its pIC50.
Marked response: 7.68

Exam item: Given CCN(CCCN1C(=O)CSC1c1cc(C(C)(C)C)c(O)c(C(C)(C)C)c1)CCOc1ccc2c(c1)OCO2 (stereo not shown) [Compound 12] , respond with its pIC50.
Marked response: 7.20

Exam item: Given CN(CCCCCN1C(=O)CSC1c1cc(C(C)(C)C)c(O)c(C(C)(C)C)c1)CCOc1ccc2c(c1)OCO2 (stereo not shown) [Compound 9] , respond with its pIC50.
Marked response: 7.55

Exam item: Given CC1SC(c2cc(C(C)(C)C)c(O)c(C(C)(C)C)c2)N(CCCN(C)CCOc2ccc3c(c2)OCO3)C1=O (stereo not shown) [Compound 72] , respond with its pIC50.
Marked response: 7.01

Continuing:
Exam item: Given CN(CCCOc1ccc2c(c1)OCO2)CCCN1C(=O)CSC1c1cc(C(C)(C)C)c(O)c(C(C)(C)C)c1 (stereo not shown) [Compound 17] , respond with its pIC50.
Marked response: 7.55

Exam item: Given CC(C)c1cc(C2SCC(=O)N2CCCN(C)CCOc2ccc3c(c2)OCO3)cc(C(C)C)c1O (stereo not shown) [Compound 1] , respond with its pIC50.
Marked response: 6.77

---

# Tested on: rabbit LDL
# assay_info: Inhibitory action on lipid peroxidation in vitro, Method A: oxidation of LDL by soybean lipoxygenase, fluorescence of LDL fraction
# Type: biochemical
# run_conditions: 5 x 10^-6 M; fluorescence intensity of oxidized LDL fraction, SLO 40 µg/ml, 37°C, 24 hours
// reported Percent (%) of Control for each item listed
# number only, unit % dropped from output

Example entries and their recorded answers appear below.
Exam item: Write down measured Percent (%) of Control (rabbit LDL) for this compound. CC1SC(c2cc(C(C)(C)C)c(O)c(C(C)(C)C)c2)N(CCCN(C)CCOc2ccc3c(c2)OCO3)C1=O (centres unmarked)
Marked response: 6.2

Exam item: Write down measured Percent (%) of Control (rabbit LDL) for this compound. COc1ccc(CCN(C)CCCN2C(=O)CSC2c2cc(C(C)(C)C)c(O)c(C(C)(C)C)c2)cc1OC (centres unmarked)
Marked response: 0.6

Exam item: Write down measured Percent (%) of Control (rabbit LDL) for this compound. CCN(CCCN1C(=O)CSC1c1cc(C(C)(C)C)c(O)c(C(C)(C)C)c1)CCOc1ccc2c(c1)OCO2 (centres unmarked)
Marked response: 6.4

Exam item: Write down measured Percent (%) of Control (rabbit LDL) for this compound. CN(CCCCCN1C(=O)CSC1c1cc(C(C)(C)C)c(O)c(C(C)(C)C)c1)CCOc1ccc2c(c1)OCO2 (centres unmarked)
Marked response: 5.9

In the following, a different compound is considered.
Exam item: Write down measured Percent (%) of Control (rabbit LDL) for this compound. CN(CCCOc1ccc2c(c1)OCO2)CCCN1C(=O)CSC1c1cc(C(C)(C)C)c(O)c(C(C)(C)C)c1 (centres unmarked)
Marked response: 3.9

Measured values drawn from patent EP0799614A1 for this set.
